Would you mind telling me the reported Enzyme Activity Endpoint Assay (purified): scIgG of each entry?
Biological target: pooled human IgG (human IgG1, 2, 3 and 4)
Numbers only, in ng/µL.

Examples from the recorded data:
| protein | reported-value |
| --- | --- |
| PRT-687 (protein) MQITSVWTKGVTPLTPEQFRYNNEDVIHAPYKPHQGWYDITKTFNGKDNLLCGAATAGNMLHWWFDQNKTEIEAYLKKYPEKQKIIFNNQKLFDLRKAINTKDSQTNSALFNYFRDKAFPNLSARQLGVMPDLVLDMFINGYYLNVFKTQSTDVNRPYQTRDKRGGIFDHVFGRGDQTTLLTARHDLKNKTLNEISQIIKQELSEGKALALSHTYANVSISHVINLWGADFNAEGNLEAIYVTDSDANAKIGMKKYYVGKNAHGKVAISAKKIEGENIGAQVLGLFTLSSGKDIWQKLSLEHHHHHH | 295 |
| PRT-694 (protein) MTITSVWTKGVTPPTPEDFRYNNEDVLHAPYVANQGWYDITKTFDGKDNLLCGAATAGNMLHWWFDQNKEEIERYLKKYPEKQKIIFNNQELFDVRAAINTKDSQTNSKLFNYFRDKAFPNLSARQLGVMPDLVLDMFINGYYLNLGKTQSTDVNRPYQDKDKRGGIFDAVFNRGDQTTLLTARHDLKNKGLNEISDLIKQELSSGKALALSHTYANVRINHVINLWGADFDAEGNLIAIYVTDSDANSNIGMKKYKVGVNANGKVAISAKKIEGDNIGAQVLGLFTLSTGQDIWQKLSLEHHHHHH | 15 |
| PRT-681 (protein) MQITSVWTKGVTPLTPEQFRYNNEDVIHAPYLAHQGWYDITKAFDGKDNLLCGAATAGNMLHWWFDQNKTEIEAYLSKYPEKQKIIFNNQELFDLRAAINTKDSQTNSQLFNYFRDKAFPNLSARQLGVMPDLVLDMFINGYYLNVFKTQSTDVNRPYQDKDKRGGIFDAVFTRGDQTTLLTARHDLKNKGLNDISTIIKQELTEGRALALSHTYANVSISHVINLWGADFNAEGNLEAIYVTDSDANASIGMKKYYVGINAHGHVAISAKKIEGENIGAQVLGLFTLSSGKEIWQKLSLEHHHHHH | 0 |

Consider the additional protein presented here.
q: Provide Enzyme Activity Endpoint Assay (purified): scIgG value for the following protein: PRT-692 (protein) MQITSVWTKGVTPPTPEQFRYNNEDVIHAPYLPNQGWYDITKTFNGGDNLLCGAATAGNMLHWWFDQNKTEIEAYLSKYPEKQKIIFNNQELFDLRAAINSKDSQTNSQLFNYFRDKAFPNLSARQLGVMPDLVLDMFINGYYLNVFKTQSTDVNRPYQDPDKRGGIFDDVFKEGDQTTLLTARHDLKNGTLNDISTLIKQELQSGKALALSHTYANVSISHVINLWGADFNAEGNLEAIYVTDSDANQSIGMKKYKVGVNAHGKVAISAKKIEGENIGAQVLGLFTLSSGKEIWQKLSLEHHHHHH
a: 38
